Molecular target: rat Monoamine Oxidase, MAO-B, Central (MAOBC), Maob (gene 25750) (UniProt P19643)
Sequence (P19643 whole entry, looked up): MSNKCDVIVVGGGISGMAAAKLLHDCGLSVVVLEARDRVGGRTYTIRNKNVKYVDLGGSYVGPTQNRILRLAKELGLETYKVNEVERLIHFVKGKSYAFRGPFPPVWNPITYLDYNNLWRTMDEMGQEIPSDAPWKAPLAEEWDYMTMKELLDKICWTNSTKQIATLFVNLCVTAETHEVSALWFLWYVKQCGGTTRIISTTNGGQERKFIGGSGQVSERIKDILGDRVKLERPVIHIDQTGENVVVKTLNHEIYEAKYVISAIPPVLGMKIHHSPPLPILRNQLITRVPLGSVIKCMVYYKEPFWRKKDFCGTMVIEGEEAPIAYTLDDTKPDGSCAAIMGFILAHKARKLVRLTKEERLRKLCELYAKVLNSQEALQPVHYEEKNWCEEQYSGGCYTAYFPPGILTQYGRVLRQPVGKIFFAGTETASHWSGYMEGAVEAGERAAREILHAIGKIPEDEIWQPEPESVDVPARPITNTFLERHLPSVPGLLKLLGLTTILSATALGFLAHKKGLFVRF
Test: NVS_ENZ_rMAOBC: NovaScreen (NVS) Enzymatic Assay for rat Monoamine Oxidase, MAO-B, Central (MAOBC) (AID 2283238)
Inconclusive results are not listed. Calls of active or inactive are those of the source. How the source made its calls: active means hit-call score of the fitted dose curve at least 0.9, where 1 is the maximum; inconclusive means response in the unintended direction; inactive means score below 0.9.
Your response should consist of one outcome taken from active, inactive

Would you please look over these solved cases?
>>> category("CC1(C)CC(N=C=O)CC(C)(CN=C=O)C1 (stereo unspecified)")
"inactive"
>>> category("Cc1ccc(C)c(C)c1")
"inactive"
>>> category("O=C(O)c1cccnc1")
"inactive"
>>> category("CC(Cc1ccc(C(C)(C)C)cc1)CN1C[C@@H](C)O[C@@H](C)C1 (stereo partly specified)")
"active"
>>> category("COc1cccc(-c2ccc(/C=C\\CN3CCCCCC3)cc2Cl)c1")
"active"

Look up the recorded call for `COc1ccc([N+](=O)[O-])cc1N` in this test.
active

Look up the recorded call for `O=C(O)Cc1cc(I)c(Oc2cc(I)c(O)c(I)c2)c(I)c1` in this test.
inactive

So what was the verdict on CCc1ccc(CCOc2ccc(CC3SC(=O)NC3=O)cc2)nc1 (stereo unspecified) in this test?
active

---

Assay: ATG_TGFb_CIS: Attagene CIS-FACTORIAL HepG2 Assay for human Transforming Growth Factor (TGF) (AID 2282967)
Conditions: HepG2 Attagene CIS TGFb reporter, mRNA transcription; actives raise or lower the signal
Calls of active or inactive are those of the source. Rule for the calls: active = hit-call score of the fitted dose curve at least 0.9, where 1 is the maximum; inactive = score below 0.9.
measuredProperty: outcome

# example entries with known answers
>>> result("Clc1ccc(-c2ccccc2)cc1")
"inactive"
>>> result("CN(C)N")
"inactive"
>>> result("O=C(O)CCl")
"inactive"
>>> result("O=C1Nc2ccc(Cl)cc2C(c2ccccc2)=NC1O (stereo not given)")
"inactive"
>>> result("N#Cc1cccc(C#N)c1")
"inactive"

Using the record for `CSc1nc(N=[N+]=[N-])nc(NC(C)C)n1` , state its measured outcome.
inactive

State, in one line, measured outcome of `CNC(=O)Oc1cc(C)c(SC)c(C)c1`
inactive

Look up outcome of `[CH3][Sn]([Cl])([Cl])[Cl]` and report it.
inactive

Identify measured outcome associated with `C=CCN(CC=C)C(=O)C(Cl)Cl`
inactive

Tell me outcome reported for `CCOC(=O)COc1ccc(Cl)cc1Cl`
inactive

---

Assay: ATG_GLI_CIS: Attagene CIS-FACTORIAL HepG2 Assay for human Zinc Finger Protein GLI1 (AID 2282945)
Conditions: HepG2, Attagene cis-factorial reporter mRNA, GLI element; actives raise or lower the signal
Active and inactive are the calls of the source. How the source made its calls: active means hit-call score of the fitted dose curve at least 0.9, where 1 is the maximum; inactive means score below 0.9.
// one of active, inactive, no free text

Examples from the recorded data:
>>> category("CCCOC(=O)c1ccccc1C(=O)OCCC")
"inactive"
>>> category("[Cl][Sb]([Cl])[Cl]")
"inactive"

Query: recorded result category for C=CC(=O)OCC(CC)CCCC (centres undefined) in this test
inactive

Please state the recorded outcome for this compound: `Nc1ccccc1`
inactive

Test call for this compound, please: `O=[N+]([O-])c1cc([N+](=O)[O-])c2ccccc2c1`
inactive

---

Assay: TOX21_p53_BLA_p3_viability: Viability Assessment in the Tox21 HCT-116 p53 Agonism Beta-lactamase Assay, Phase 3 (AID 2283593);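 further: cells exposed to compound for 16 h before reading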
Inconclusive results are not listed. Activity calls are given as the source filed them. Rule for the calls: active = hit-call score of the fitted dose curve at least 0.9, where 1 is the maximum; inconclusive = response in the unintended direction; inactive = score below 0.9.
Answer with one of the outcomes active, inactive

Consider the worked cases shown below.
>>> category("Clc1ccccc1-c1ccccc1Cl")
"active"
>>> category("O=C1NCN(c2ccccc2)C12CCN(CC1COc3ccccc3O1)CC2 (centres undefined)")
"inactive"
>>> category("CN")
"inactive"

Entry `CCOP(=O)(OCC)Oc1ccc([N+](=O)[O-])cc1` : call = ?
inactive
